Test system: K562 CRISPRi cells
Assay: Constant region variant library pooled growth screen, K562
Assay type: cell-based, human
Settings: sgRNA constant region variants; activity relative to the original, un-modified constant region cr995
Short version: Mean relative activity at least 0.02 is 1.0, less is 0.0.

Reference set (2 entries):
MOLECULE	CAT
cr612 (nucleic acid, listed as DNA, chemistry not fully specified) guide: GTTTAAGAGCTAAGCTGGATACAGCATAGCAAGTTTAAATAAGGCTAGTCCGTTATCAACTTGAAAAAGTGGCACCGAGTCGGTGCT	1.0
cr431 (nucleic acid, listed as DNA, chemistry not fully specified) guide: GTTTAAGAGCTAAGCTGGAAACAGCATAGCAAGGTTAAATAAGGCTAGTCCGTTATCAACTTGAGAAAGTGGCACCGCGTCGGTGCT	0.0

Enquiry: Check the entry cr098 (nucleic acid, listed as DNA, chemistry not fully specified) guide: GTTTACGTGCTAAGCTGGAAACAGCATAGCAAGTTTAAATAAGGCTAGTCCGTTATCAACTTGAAAAAGTGGCACCGAGTCGGTGCT : does Mean relative activity equal or exceed 0.02?
Return: 1.0

Enquiry: Check the entry cr581 (nucleic acid, listed as DNA, chemistry not fully specified) guide: GTTTAAGAGCTAAGCTGGAAACAGCATAGCAAGTTTTAATAAGGCTAGTCCGTTATCAACTTGAAAAAGTGGCACCGAGTCGGTGCT : does Mean relative activity equal or exceed 0.02?
Return: 1.0

Enquiry: Check the entry cr988 (nucleic acid, listed as DNA, chemistry not fully specified) guide: GTTTAAGAGCTAAGCTGGAAACAGCATAGCAACTTTAAATAAGGCTAGTCCGTTATCAAGTTGAAAAACTGGCACCGAGTCGGTGCT : does Mean relative activity equal or exceed 0.02?
Return: 1.0

Enquiry: Check the entry cr383 (nucleic acid, listed as DNA, chemistry not fully specified) guide: GTTTAAGAGCTAAGCTGGAAACAGCATAGCAACTTTAAATAAGGCTAGTCCGTTATCAACTTGAAAAAGTGGCACCTAGTAGGTGCT : does Mean relative activity equal or exceed 0.02?
Return: 0.0

Enquiry: Check the entry cr768 (nucleic acid, listed as DNA, chemistry not fully specified) guide: GTTTAAGAGCTAAGCTGGAAACAGCATAGCAAGTTTAAATAAGGCTAGTCCGTTATCAACTTGAAAAAGTGGCACCGAGCCGGTGCT : does Mean relative activity equal or exceed 0.02?
Return: 1.0
